B1: Azoarcus group I ribozyme (parent)
chain: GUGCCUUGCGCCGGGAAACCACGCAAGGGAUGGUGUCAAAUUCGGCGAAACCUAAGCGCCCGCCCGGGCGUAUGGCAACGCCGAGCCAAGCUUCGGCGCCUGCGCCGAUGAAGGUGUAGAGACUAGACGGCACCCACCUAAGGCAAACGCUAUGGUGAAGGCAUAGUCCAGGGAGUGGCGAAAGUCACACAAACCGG

# Variants of: B1
# method: reverse-splicing fitness (ratio to wild type); higher = more active; in vitro selection; Mg2+ level not given
Item-by-item account of reverse-splicing fitness
Answer as a number with no unit attached.

Worked examples, 2 variants total:
> print(dat)
                mutation.string  recorded.measurement
1  C82A A111C A145C C150G C169G               0.00663
2  C82U A120C A145G C150G C169G               0.00749

Incoming: If you can, please state the reported reverse-splicing fitness value of C82A A111G A120G C150G C169A U176C .
Outgoing: 0.0123

Incoming: So what does the record say about reverse-splicing fitness for C82A A120C C150U C169G U176A ?
Outgoing: 0.0152

Incoming: For the variant shown here, C82U A111C A120U A145C C150A , give the reported reverse-splicing fitness.
Outgoing: 0.00398

Incoming: Look up reverse-splicing fitness: C82A A111U A120U A145G C150U C169A U176C
Outgoing: 0.00423

Incoming: Which reverse-splicing fitness reading was recorded for the variant C82A A145C C150U C169A U176A ?
Outgoing: 0.0106
